System: Klebsiella pneumoniae
ASSAY OVERVIEW: Antimicrobial activity against Klebsiella pneumoniae ATCC 700603 assessed as reduction in microbial growth incubated for 18 hrs by Mueller-Hinton Broth based microdilution assay
Assay type: functional
Square brackets hold non-standard residues; d marks the D form. Peptide text beside a SMILES is read from it. NMeI = CC[C@H](C)[C@H](NC)C(=O)O; NMeL = CN[C@@H](CC(C)C)C(=O)O
VALUE TYPE: MIC

Dear colleague, please send me the reported MIC for CC[C@H](C)[C@H](NC(=O)[C@H](CCCNC(=N)N)NC(=O)[C@H](CCCCN)NC(=O)[C@H](CC(C)C)N(C)C(=O)[C@H](CC(C)C)NC(=O)CN)C(=O)N[C@@H](CCCCN)C(=O)N[C@H](C(=O)N[C@@H](CC(C)C)C(=O)N[C@@H](CC(C)C)C(N)=O)[C@@H](C)O (H-GL[NMeL]KRIKTLL-NH2) when you can.
> 128 µM

Dear colleague, please send me the reported MIC for CC[C@H](C)[C@@H](C(=O)N[C@@H](CCCCN)C(=O)N[C@H](C(=O)N[C@@H](CC(C)C)C(=O)N[C@@H](CC(C)C)C(N)=O)[C@@H](C)O)N(C)C(=O)[C@H](CCCNC(=N)N)NC(=O)[C@H](CCCCN)NC(=O)[C@H](CC(C)C)NC(=O)[C@H](CC(C)C)NC(=O)CN (H-GLLKR[NMeI]KTLL-NH2) when you can.
> 128 µM

Dear colleague, please send me the reported MIC for CC[C@H](C)[C@H](NC(=O)[C@H](CCCNC(=N)N)NC(=O)[C@H](CCCCN)NC(=O)[C@H](CC(C)C)NC(=O)[C@H](CC(C)C)N(C)C(=O)CN)C(=O)N[C@@H](CCCCN)C(=O)N[C@H](C(=O)N[C@@H](CC(C)C)C(=O)N(C)[C@@H](CC(C)C)C(N)=O)[C@@H](C)O (H-G[NMeL]LKRIKTL[NMeL]-NH2) when you can.
> 128 µM

---

Tested on: Zymomonas mobilis
ASSAY OVERVIEW: Antibacterial activity against Zymomonas mobilis ATCC 10988 assessed as reduction in bacterial growth incubated for 24 hrs by broth micro-dilution method
Format: functional
Peptide text beside a SMILES is read from it.
Catalogue of MIC readings, one per entry.
Number only, in µM; omit the unit.

COMPOUND: CC[C@H](C)[C@H](NC(=O)[C@H](CCCCN)NC(=O)[C@H](CCCCN)NC(=O)[C@H](CC(C)C)NC(=O)[C@H](CC(C)C)NC(=O)CN)C(=O)N[C@@H](CCCCN)C(=O)N[C@@H](CCCNC(=N)N)C(=O)N[C@@H](CC(C)C)C(=O)N[C@@H](CC(C)C)C(N)=O (H-GLLKKIKRLL-NH2)
MIC [µM]: 4.2

Dear colleague, please send me the reported MIC for CC[C@H](C)[C@H](NC(=O)[C@H](CCCNC(=N)N)NC(=O)[C@H](CCCCN)NC(=O)[C@H](CCCCN)NC(=O)[C@H](CC(C)C)NC(=O)CN)C(=O)N[C@@H](CCCCN)C(=O)N[C@@H](CCCCN)C(=O)N[C@@H](CC(C)C)C(=O)N[C@@H](CC(C)C)C(N)=O (H-GLKKRIKKLL-NH2) when you can.
12.6

Dear colleague, please send me the reported MIC for CC[C@H](C)[C@H](NC(=O)[C@H](Cc1ccccc1)NC(=O)[C@H](CCCCN)NC(=O)[C@H](CC(C)C)NC(=O)[C@H](CC(C)C)NC(=O)[C@@H](N)CCCNC(=N)N)C(=O)N[C@@H](CCCCN)C(=O)N[C@@H](CCCCN)C(=O)N[C@@H](CC(C)C)C(=O)N[C@@H](CC(C)C)C(N)=O (H-RLLKFIKKLL-NH2) when you can.
7.9

Dear colleague, please send me the reported MIC for CC[C@H](C)[C@H](NC(=O)[C@H](CCCCN)NC(=O)[C@H](CC(C)C)NC(=O)[C@H](CC(C)C)NC(=O)CN)C(=O)N[C@H](C(=O)N[C@@H](CCCCN)C(=O)N[C@@H](CCCCN)C(=O)N[C@@H](CC(C)C)C(=O)N[C@@H](CC(C)C)C(N)=O)[C@@H](C)CC (H-GLLKIIKKLL-NH2) when you can.
2.5
